Reference source for all entries: patent US8722622B2

- test-summary: Stability of linkers L1-L4 conjugated to FGF21 (LC-MS)
- Format: physicochemical
- test-conditions: +4° C., 336 hrs
measurement-type: 1 linker (protein+linker)
Don't forget the unit after the value.

# molecule L3-FGF21ΔH-A129C: Linker-3 conjugated to FGF21ΔH-A129C protein (Table 4; Table 5 row L3) (conjugate, UniProt Q9NSA1 29-209, looked up, variant H1* A129C, Linker-3 attached) Fibroblast growth factor 21: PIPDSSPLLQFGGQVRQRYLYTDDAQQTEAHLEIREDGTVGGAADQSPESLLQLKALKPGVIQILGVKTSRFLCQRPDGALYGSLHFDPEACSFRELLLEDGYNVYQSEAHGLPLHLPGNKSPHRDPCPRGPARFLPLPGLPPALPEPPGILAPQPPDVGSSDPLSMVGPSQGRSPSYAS ; its 1 linker (protein+linker) = 43%
